B1: library; numbered along this chain (parent)
chain: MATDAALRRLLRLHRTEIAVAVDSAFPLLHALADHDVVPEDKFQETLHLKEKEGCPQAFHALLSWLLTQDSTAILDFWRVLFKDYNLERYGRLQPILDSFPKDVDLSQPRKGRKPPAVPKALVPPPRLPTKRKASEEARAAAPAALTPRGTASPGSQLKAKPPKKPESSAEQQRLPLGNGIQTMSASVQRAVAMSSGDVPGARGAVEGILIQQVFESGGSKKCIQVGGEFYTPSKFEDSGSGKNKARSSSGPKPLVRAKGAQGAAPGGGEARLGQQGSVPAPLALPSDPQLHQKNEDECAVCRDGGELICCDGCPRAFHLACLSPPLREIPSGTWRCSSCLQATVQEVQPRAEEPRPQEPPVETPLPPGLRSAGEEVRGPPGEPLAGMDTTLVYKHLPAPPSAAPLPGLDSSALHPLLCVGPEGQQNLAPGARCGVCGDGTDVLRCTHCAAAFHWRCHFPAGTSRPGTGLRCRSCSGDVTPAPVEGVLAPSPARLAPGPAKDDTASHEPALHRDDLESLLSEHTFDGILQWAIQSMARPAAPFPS

Variants of: B1
Assay: AIRE transcriptional activation functional score (insulin promoter-GFP; nonsense median 0, synonymous median 1) (normalised score); higher = higher AIRE activity (more reporter activation)
Settings: with insulin promoter-GFP reporter in HEK293
property-label: AIRE transcriptional activation functional score
# print the numeric value only

// below: answered variants
{"columns": ["variant-designation", "observed-measurement"],
 "data": [
  ["G382K", 0.449],
  ["E298F", 0.727],
  ["H60K", -0.424],
  ["G313Q", 1],
  ["V37F", 0.178]
]}

What value of measured AIRE transcriptional activation functional score is listed for G305Y ?
1.05

Report AIRE transcriptional activation functional score for A386H please.
1.44
